Molecular target: hERG (Homo sapiens)
Sequence (Q12809 whole entry): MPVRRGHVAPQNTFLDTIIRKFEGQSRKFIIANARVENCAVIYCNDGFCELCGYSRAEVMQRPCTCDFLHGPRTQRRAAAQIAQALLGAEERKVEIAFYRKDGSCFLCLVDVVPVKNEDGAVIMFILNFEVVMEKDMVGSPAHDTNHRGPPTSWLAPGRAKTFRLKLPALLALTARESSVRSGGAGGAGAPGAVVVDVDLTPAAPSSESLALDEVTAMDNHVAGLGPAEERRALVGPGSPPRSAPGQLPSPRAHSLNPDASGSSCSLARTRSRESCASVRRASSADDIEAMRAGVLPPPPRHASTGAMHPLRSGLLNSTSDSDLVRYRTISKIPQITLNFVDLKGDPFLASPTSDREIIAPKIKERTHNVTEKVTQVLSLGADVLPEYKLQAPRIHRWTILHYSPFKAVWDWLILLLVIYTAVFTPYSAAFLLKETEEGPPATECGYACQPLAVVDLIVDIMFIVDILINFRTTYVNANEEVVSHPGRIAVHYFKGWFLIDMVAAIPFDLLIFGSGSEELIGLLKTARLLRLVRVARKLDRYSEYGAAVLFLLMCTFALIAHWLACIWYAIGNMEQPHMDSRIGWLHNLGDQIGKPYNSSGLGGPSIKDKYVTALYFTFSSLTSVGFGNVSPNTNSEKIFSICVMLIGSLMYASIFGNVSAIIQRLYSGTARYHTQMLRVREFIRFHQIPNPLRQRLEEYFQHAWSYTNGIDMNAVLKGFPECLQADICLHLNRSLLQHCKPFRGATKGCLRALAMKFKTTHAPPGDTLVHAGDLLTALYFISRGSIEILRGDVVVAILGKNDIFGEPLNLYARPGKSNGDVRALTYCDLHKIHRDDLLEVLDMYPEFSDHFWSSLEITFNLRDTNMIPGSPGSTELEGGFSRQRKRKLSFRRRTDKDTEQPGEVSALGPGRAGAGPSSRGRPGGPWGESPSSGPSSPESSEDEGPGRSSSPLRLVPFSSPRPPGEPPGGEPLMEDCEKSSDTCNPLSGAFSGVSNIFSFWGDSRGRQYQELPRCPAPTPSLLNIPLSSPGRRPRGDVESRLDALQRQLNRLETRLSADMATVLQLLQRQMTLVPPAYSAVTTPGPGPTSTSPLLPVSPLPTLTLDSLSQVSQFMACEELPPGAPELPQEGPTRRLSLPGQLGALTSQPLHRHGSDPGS
Assay: hERG safety evaluation by manual Patch-Clamp system
Details: manual Patch-Clamp, hERG stably expressed HEK 293 cell line
Protocol: Cell lines and cell culture: hERG stably expressed HEK 293 cell line (Cat #K1236) was purchased from Invitrogen. The cells are cultured in 85% DMEM, 10% dialyzed FBS, 0.1 mM NEAA, 25 mM HEPES, 100 U/mL Penicillin-Streptomycin, 5 μg/mL Blasticidin and 400 μg/mL Geneticin. Cells are split using TrypLE™ Express about three times a week, and maintained between ˜40% to ˜80% confluence. […]
pIC50: −log10 of the molar value.
property: pIC50

Fill in pIC50 for record C[C@@H]1Cc2cc(C(N)=O)cnc2N1 [Compound 11]
< 4.52

====

Assay: Mouse PK studies of 11 (plasma)
Format: in vivo, Female C57B16/N mice
Details: female, C57B16/N, mouse, plasma, po, 10 mg/kg, 10 mg/kg PO, formulation a
property: AUC(0-inf) (ng·h/mL)
Numbers only; they are read as ng·h/mL.

Fill in AUC(0-inf) for record C[C@@H]1Cc2cc(C(N)=O)cnc2N1
593

====

Assay: in vitro
Conditions: human, Caco-2, pH 7.4, Recovery (%) AP-BL
property: recovery at 2 h, 5 µM (%)
Numbers only; they are read as %.

Fill in recovery at 2 h, 5 µM for record C[C@@H]1Cc2cc(C(N)=O)cnc2N1
102

====

Assay: Metabolic stability in pooled male mouse liver microsomes
Details: male, mouse, pooled liver microsomes
property: CLint scaled at 2 μM

Fill in CLint scaled at 2 μM for record C[C@@H]1Cc2cc(C(N)=O)cnc2N1
< 23.7 mL/min/kg

====

Experiment: Mouse PK studies of 11 (plasma)
Type: in vivo, Female C57B16/N mice
Settings: female, C57B16/N, mouse, plasma, po; title: single 100 mg/kg dosage; 50 mg/kg^b; formulation b
property: AUC(0-t) (µg·h/mL)
Numbers only; they are read as µg·h/mL.

Fill in AUC(0-t) for record C[C@@H]1Cc2cc(C(N)=O)cnc2N1 [Compound 11]
116

====

Experiment: Mouse PK studies of 11 (plasma)
Assay type: in vivo, Female C57B16/N mice
Conditions: female, C57B16/N, mouse, plasma; 50 mg/kg PO, formulation a
property: Tmax (min)
Numbers only; they are read as min.

Fill in Tmax for record C[C@@H]1Cc2cc(C(N)=O)cnc2N1 [Compound 11]
15

====

Entries and their Papp A→B at 2 h, 5 μM values follow.
Experiment: Permeability assay in Caco-2 cells
Conditions: human, Caco-2, pH 7.4
The number alone won't do; follow it with the unit.

{"compound": "C[C@@H]1Cc2cc(C(N)=O)cnc2N1 [Compound 11]", "Papp A→B at 2 h, 5 μM": "27.5 ×10⁻⁶ cm/s"}
{"compound": "CC(C)NCC(O)COc1cccc2ccccc12 (stereo not shown) [Propranolol]", "Papp A→B at 2 h, 5 μM": "26.9 ×10⁻⁶ cm/s"}

Fill in Papp A→B at 2 h, 5 μM for record COc1cc2nc(N3CCN(C(=O)c4ccco4)CC3)nc(N)c2cc1OC [Prazosin]
9.44 ×10⁻⁶ cm/s

Fill in Papp A→B at 2 h, 5 μM for record C[C@H]1O[C@@H](O[C@H]2[C@@H](O)C[C@H](O[C@H]3[C@@H](O)C[C@H](O[C@H]4CC[C@@]5(C)[C@H](CC[C@@H]6[C@@H]5C[C@@H](O)[C@]5(C)[C@@H](C7=CC(=O)OC7)CC[C@]65O)C4)O[C@@H]3C)O[C@@H]2C)C[C@H](O)[C@@H]1O [Digoxin]
0.67 ×10⁻⁶ cm/s

The measurements presented in this section are drawn from patent US20250368638A1.
